Assay: solvent given as SMILES
Details: in CC#N
Checkbox rule: fluorescence lifetime lower than 4 ns = T; fluorescence lifetime not lower than 4 ns = F.

Recorded results for 8 compounds are shown here.
Compound	Label
Cc1cc(C)c(C)c(-c2ccc3cc(C)c(=O)oc3c2)c1C	T
C(=C\c1c2ccccc2cc2ccccc12)/c1cccc2ccccc12	F
COc1ccc2c3c(OC)c4ccccc4c(OC)c3n(C)c2c1	F
Cc1cc(=O)oc2ccc3ccc(O)cc3c12	F
C(=C\c1ccc(-c2ccc(/C=C/c3ccc(-n4c5ccccc5c5ccccc54)cc3)s2)s1)/c1ccc(-n2c3ccccc3c3ccccc32)cc1	T
COc1ccc(C2=CC(c3ccc(OC)cc3)=[O+][B-](C(C)=O)(C(C)=O)O2)cc1	T
COc1ccc2c(c1)-c1cc(OC)ccc1C2=O	F
CN(C)c1ccc(-c2nc3c(c4c2-c2ccccc2CC4)-c2ccccc2CC3)cc1	T

API: query returns whether the compound falls strictly under 4 ns in fluorescence lifetime. Query: N#Cc1cccc(N)c1
F

Please give the result for Cc1cc2c(ccc3c[n+](C)c(C)cc32)c[n+]1C too.
F

Please give the result for CC(=O)OC[C@H]1O[C@@H](OCC#Cc2ccc(C3=C4C(C)=CC(/C=C/c5ccc([N+](C)(C)C)cc5)=[N+]4[B-](F)(F)n4c(/C=C/c5ccc([N+](C)(C)C)cc5)cc(C)c43)cc2)[C@H](OC(C)=O)C(OC(C)=O)[C@@H]1OC(C)=O (stereo partly drawn) too.
F

Please give the result for COC(=O)CC1(C(=O)OC)Oc2c(c(C(C)=O)c3c(c2C(C)=O)OCO3)O1 too.
F

Please give the result for O=C(O)COc1ccc2[nH]c3c(c2c1)CCCC3=O too.
T

Please give the result for N#Cc1ccc(-c2ccc3c(c2)c2cc(-c4ccc(C#N)cc4)ccc2c2c3nc(-c3ccc(-c4ccc(N(c5ccccc5)c5ccccc5)cc4)cc3)n2-c2ccccc2)cc1 too.
T

Please give the result for CN(C)c1ccc(/C=C/C=C/c2ccc(C#N)cc2)cc1 too.
T

Please give the result for COC(=O)C12N=N[C@](C(=O)OC)(C3C4CCC(C4)C31)C1[C@@H]3CC[C@@H](C3)[C@H]12 (stereo partly drawn) too.
F

Please give the result for COc1ccc(/C=C/C2=CC(/C=C/c3ccc(OC)c4ccccc34)=[O+][B-](F)(F)O2)c2ccccc12 too.
T

Please give the result for Nc1ccc2cn[nH]c2c1 too.
F
